- Test system: L1210 leukemia ip in BDF1 mice, survival T/C
- procedureText: NCI In Vivo Anticancer Drug Screen. Data for tumor model L1210 Leukemia (intraperitoneal) in B6D2F1 (BDF1) mice
- conditionSet: endpoint: mean survival time; dose: 100.0 mg/kg/injection; schedule: Q01DX001 (ip); vehicle: saline; higher = longer survival
- Experimental: The antitumor activity of compounds was measured in mice bearing transplantable tumors. Survival or tumor size were measured and the results are expressed as the measurement made in the treated group (T) divided by the measurement made in the vehicle treated control group (C). The tumor model used in this assay is L1210 Leukemia (intraperitoneal) in B6D2F1 (BDF1) mice
Inconclusive results and toxic doses are left out.
experimentalReadout: T/C

{"molecule": "O=C(Nc1ccc(Cl)c(Cl)c1)n1ncc2ccc([N+](=O)[O-])cc21", "testSystem": "L1210 leukemia ip in BDF1 mice, survival T/C", "T/C": "100 % of control"}
{"molecule": "O=c1[nH]cccc1CCc1ccccc1", "testSystem": "L1210 leukemia ip in BDF1 mice, survival T/C", "T/C": "103 % of control"}
{"molecule": "Cn1c2c(c(=O)n(C)c1=O)C(=Nc1ccccc1)C(=O)N2", "testSystem": "L1210 leukemia ip in BDF1 mice, survival T/C", "T/C": "101 % of control"}
{"molecule": "Cc1csc[n+]1CCS(=O)(=O)[O-]", "testSystem": "L1210 leukemia ip in BDF1 mice, survival T/C", "T/C": "95 % of control"}
{"molecule": "O=[N+]([O-])c1cccc(OCCBr)c1", "testSystem": "L1210 leukemia ip in BDF1 mice, survival T/C", "T/C": "101 % of control"}
{"molecule": "COc1ccc(Cc2c3cc(OC)c(OC)cc3cc[n+]2[O-])cc1OC", "testSystem": "L1210 leukemia ip in BDF1 mice, survival T/C", "T/C": "91 % of control"}
{"molecule": "O=C1CC(CC(=O)C2CCCC2=O)CC(=O)N1 (stereo not given)", "testSystem": "L1210 leukemia ip in BDF1 mice, survival T/C", "T/C": "101 % of control"}
{"molecule": "CC1(O)CCCCCCC1", "testSystem": "L1210 leukemia ip in BDF1 mice, survival T/C", "T/C": "93 % of control"}
{"molecule": "CC(C)C12NC(=O)NC(=O)N1CCS2 (stereo not given)", "testSystem": "L1210 leukemia ip in BDF1 mice, survival T/C", "T/C": "96 % of control"}

Kindly consider the entry below.
I am curious: what T/C value has been reported for `O=C1NS(=O)(=O)CS(=O)(=O)N1` ?
108 % of control

###

- System: L1210 leukemia ip in BDF1 mice, survival T/C
- procedureText: NCI In Vivo Anticancer Drug Screen. Data for tumor model L1210 Leukemia (intraperitoneal) in B6D2F1 (BDF1) mice
- conditionSet: endpoint: mean survival time; dose: 3.12 mg/kg/injection; schedule: Q01DX009 (ip); vehicle: saline; higher = longer survival
Inconclusive results and toxic doses are left out.
Each entry below carries its reported T/C.

# example entries with known answers
{"molecule": "CCCCCCCCCCCC[N+](CCO)(CCO)Cc1ccccc1", "T/C": "96 % of control"}
{"molecule": "O=C(/C(=C\\c1ccccc1)CBr)c1ccc(Br)cc1", "T/C": "100 % of control"}
{"molecule": "CC(C)=CCNc1ncnc2c1c(C#N)cn2C1OC(CO)C(O)C1O (stereo not given)", "T/C": "97 % of control"}
{"molecule": "C(=P(c1ccccc1)(c1ccccc1)c1ccccc1)[P+](c1ccccc1)(c1ccccc1)c1ccccc1", "T/C": "100 % of control"}

Kindly consider the entry below.
# returns recorded T/C (system: L1210 leukemia ip in BDF1 mice, survival T/C) for `CN(C)CC/C=C1\c2ccccc2Sc2ccc(C(F)(F)F)cc21`
115 % of control

###

- Tested on: L1210 leukemia ip in BDF1 mice, survival T/C
- procedureText: NCI In Vivo Anticancer Drug Screen. Data for tumor model L1210 Leukemia (intraperitoneal) in B6D2F1 (BDF1) mice
- conditionSet: endpoint: mean survival time; dose: 200.0 mg/kg/injection; schedule: Q01DX009 (ip); vehicle: gum acacia; higher = longer survival
Inconclusive results and toxic doses are left out.
experimentalReadout: T/C

# example entries with known answers
{"compound": "S=C1NC(c2ccc(Cl)cc2)N2C(=S)NC(c3ccc(Cl)cc3)N12 (centres undefined)", "experimentalReadout": "T/C", "val": "93 % of control"}
{"compound": "Oc1ccccc1N=Cc1ccc(C=Nc2ccccc2O)cc1", "experimentalReadout": "T/C", "val": "97 % of control"}
{"compound": "ClC1=C(Cl)C2(Cl)C(c3ccccc3)=CC1(Cl)C2(Cl)Cl (centres undefined)", "experimentalReadout": "T/C", "val": "90 % of control"}

Kindly consider the entry below.
I am curious: what T/C value has been reported for `COc1cc([N+](=O)[O-])ccc1S(=O)(=O)F` ?
98 % of control

###

Each entry below carries its reported T/C.
- Tested on: L1210 leukemia ip in BDF1 mice, survival T/C
- procedureText: NCI In Vivo Anticancer Drug Screen. Data for tumor model L1210 Leukemia (intraperitoneal) in B6D2F1 (BDF1) mice
- conditionSet: endpoint: mean survival time; dose: 200.0 mg/kg/injection; schedule: Q01DX005 (ip); vehicle: saline; higher = longer survival
Inconclusive results and toxic doses are left out. Peptide text beside a SMILES is read from it. * marks the point of attachment. Boc = CC(C)(C)OC(=O)*; Bn = c1ccc(C*)cc1

# example entries with known answers
{"molecule": "CCOC(=O)C1OC(n2cnc3c(N)ncnc32)C(O)C1O (configuration not stated)", "testSystem": "L1210 leukemia ip in BDF1 mice, survival T/C", "T/C": "97 % of control"}
{"molecule": "N#Cc1c(NN)n(C2OC(CO)C(O)C2O)c2ncnc(N)c12 (configuration not stated)", "testSystem": "L1210 leukemia ip in BDF1 mice, survival T/C", "T/C": "96 % of control"}
{"molecule": "CCOP(=O)(CCO)OCC", "testSystem": "L1210 leukemia ip in BDF1 mice, survival T/C", "T/C": "95 % of control"}
{"molecule": "CCSC1C(OC(C)=O)C(C(COC(C)=O)OC(C)=O)OC1n1cnc2c(Cl)nc(Cl)nc21 (configuration not stated)", "testSystem": "L1210 leukemia ip in BDF1 mice, survival T/C", "T/C": "109 % of control"}
{"molecule": "CC(=O)N1C(=O)NC(=O)C1(CSCc1ccccc1)CSCc1ccccc1", "testSystem": "L1210 leukemia ip in BDF1 mice, survival T/C", "T/C": "110 % of control"}

I am curious: what T/C value has been reported for COC(=O)C1OC(n2cnc3c(N)ncnc32)C2OC(C)(C)OC12 (configuration not stated) ?
104 % of control

I am curious: what T/C value has been reported for CC(C)(C)OC(=O)NC(CO)C(=O)NC(Cc1ccc(OCc2ccccc2)cc1)C(=O)NCC(=O)O (stereo not drawn) (Boc-Ser-Tyr(Bn)-Gly-OH; configuration not given here) ?
105 % of control

###

Each entry below carries its reported T/C.
- Tested on: L1210 leukemia ip in BDF1 mice, survival T/C
- procedureText: NCI In Vivo Anticancer Drug Screen. Data for tumor model L1210 Leukemia (intraperitoneal) in B6D2F1 (BDF1) mice
- conditionSet: endpoint: mean survival time; dose: 400.0 mg/kg/injection; schedule: Q04DX002 (ip); vehicle: Klucel (hydroxypropylcellulose) (HPC); higher = longer survival
Inconclusive results and toxic doses are left out.

# example entries with known answers
{"molecule": "CCCCCCCCCCCCCCCCOc1c(Cl)cc(Cl)cc1Cl", "T/C": "102 % of control"}
{"molecule": "CCOC(=O)C1CC(C)c2[nH]c3ccccc3c21 (stereo unspecified)", "T/C": "89 % of control"}
{"molecule": "O=C(O)C1CC=CCC1C(=O)Nc1cccc(O)c1 (stereo unspecified)", "T/C": "99 % of control"}
{"molecule": "O=C(Nc1ccc(Cl)cc1)Nc1ncccn1", "T/C": "96 % of control"}
{"molecule": "Cc1no[n+]([O-])c1C(=O)NN", "T/C": "95 % of control"}

I am curious: what T/C value has been reported for `O=S(=O)(OCCOS(=O)(=O)c1ccccc1)c1ccccc1` ?
100 % of control

###

- System: L1210 leukemia ip in BDF1 mice, survival T/C
- procedureText: NCI In Vivo Anticancer Drug Screen. Data for tumor model L1210 Leukemia (intraperitoneal) in B6D2F1 (BDF1) mice
- conditionSet: endpoint: mean survival time; dose: 10.0 mg/kg/injection; schedule: Q01DX001 (ip); vehicle: saline; higher = longer survival
Inconclusive results and toxic doses are left out.
experimentalReadout: T/C

# example entries with known answers
{"testSmiles": "CCOC(=O)CN1N=C([P+](c2ccccc2)(c2ccccc2)c2ccccc2)CC1(c1ccccc1)c1ccccc1", "val": "95 % of control"}
{"testSmiles": "N#C[S-].N#C[S-].N#C[S-].N#C[S-].[Co]", "val": "104 % of control"}
{"testSmiles": "C[N+]1(CCNC2=CC(=O)C(NCC[N+]3(C)CCOCC3)=CC2=O)CCOCC1", "val": "101 % of control"}

I am curious: what T/C value has been reported for `N#Cc1c(F)c(F)c(C#N)c(F)c1F` ?
102 % of control
